Entry source: BindingDB's records for patent US20250115591

Quick record of IC50 values for NACHT, LRR and PYD domains-containing protein 3 (Homo sapiens).
readout.name: IC50

| compound | observed.measurement |
| --- | --- |
| CC(C)(C)OC(=O)N1CC(N2CC(S(=O)(=O)NC(=O)Nc3c4c(cc5c3CCC5)CCC4)C2)C1 | < 10 µM |
| CC(C)NC(=O)N1CCCC(S(=O)(=O)NC(=O)Nc2c3c(cc4c2CCC4)CCC3)C1 (configuration not stated) | < 10 µM |
| CCC(C)N1CC(S(=O)(=O)NC(=O)Nc2c(C(C)C)cc(F)cc2C(C)C)C1 (configuration not stated) | < 10 µM |
| CC(C)(C)OC(=O)/N=C(/NC(=O)OC(C)(C)C)N1CC(S(=O)(=O)NC(=O)Nc2c3c(cc4c2CCC4)CCC3)C1 | < 10 µM |
| CCN1CCCC(S(=O)(=O)NC(=O)Nc2c3c(cc4c2CCC4)CCC3)CC1 (configuration not stated) | < 1 µM |
| CC(C)N1[C@@H]2CC[C@H]1C[C@H](S(=O)(=O)NC(=O)Nc1c3c(cc4c1CCC4)CCC3)C2 | < 1 µM |
| CN(C(=O)OC(C)(C)C)/C(=N\C(=O)OC(C)(C)C)N1CC(S(=O)(=O)NC(=O)Nc2c3c(cc4c2CCC4)CCC3)C1 | < 10 µM |

====

target: NACHT, LRR and PYD domains-containing protein 3 (Homo sapiens, UniProt Q96P20)
Sequence (Q96P20 whole entry, the tested form may be a part): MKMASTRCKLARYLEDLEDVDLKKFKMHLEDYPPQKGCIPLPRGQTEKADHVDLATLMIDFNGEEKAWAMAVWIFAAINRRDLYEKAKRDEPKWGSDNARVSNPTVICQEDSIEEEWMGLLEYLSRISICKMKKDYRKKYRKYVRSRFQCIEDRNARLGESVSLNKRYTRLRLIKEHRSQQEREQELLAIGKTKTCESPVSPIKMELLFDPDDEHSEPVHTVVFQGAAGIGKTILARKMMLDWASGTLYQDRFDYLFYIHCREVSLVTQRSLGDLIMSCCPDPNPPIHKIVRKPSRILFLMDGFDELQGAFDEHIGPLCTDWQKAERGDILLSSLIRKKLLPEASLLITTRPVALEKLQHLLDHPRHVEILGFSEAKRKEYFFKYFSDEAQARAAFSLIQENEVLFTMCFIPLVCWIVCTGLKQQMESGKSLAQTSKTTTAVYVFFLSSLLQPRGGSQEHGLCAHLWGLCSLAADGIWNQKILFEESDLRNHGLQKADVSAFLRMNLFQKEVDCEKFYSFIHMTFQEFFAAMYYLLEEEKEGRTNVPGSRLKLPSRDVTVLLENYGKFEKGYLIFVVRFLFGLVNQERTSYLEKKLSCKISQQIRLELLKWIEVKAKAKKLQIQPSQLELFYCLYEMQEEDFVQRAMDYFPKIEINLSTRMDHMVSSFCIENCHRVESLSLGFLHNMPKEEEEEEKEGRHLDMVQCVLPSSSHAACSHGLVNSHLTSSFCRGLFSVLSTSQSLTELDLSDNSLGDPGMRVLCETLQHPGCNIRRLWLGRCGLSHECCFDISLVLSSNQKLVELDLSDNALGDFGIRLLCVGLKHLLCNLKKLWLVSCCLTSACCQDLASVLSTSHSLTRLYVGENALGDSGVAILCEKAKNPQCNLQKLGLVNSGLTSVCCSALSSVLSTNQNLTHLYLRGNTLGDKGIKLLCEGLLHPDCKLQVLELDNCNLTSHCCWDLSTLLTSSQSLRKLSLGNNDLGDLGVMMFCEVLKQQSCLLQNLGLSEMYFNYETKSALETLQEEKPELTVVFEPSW
pIC50: −log10 of the molar value.
readout.name: pIC50

| compound | readout.name | observed.measurement |
| --- | --- | --- |
| C[C@@H](O)Cn1cc(S(=O)(=O)NC(=O)Nc2c3c(cc4c2CCC4)CCC3)ccc1=O [US20250115591, Example 183] | pIC50 | > 6.00 |
| CCNC(=O)N1CCC(S(=O)(=O)NC(=O)Nc2c3c(cc4c2CCC4)CCC3)CC1 [US20250115591, Example 26] | pIC50 | > 5.00 |
| CN1CC(N2[C@@H]3CC[C@H]2C[C@@H](S(=O)(=O)NC(=O)Nc2c4c(cc5c2CCC5)CCC4)C3)C1 [US20250115591, Example 146] | pIC50 | > 5.00 |
| CCCCCCn1cc(S(=O)(=O)NC(=O)Nc2c3c(cc4c2CCC4)CCC3)c(=O)[nH]c1=O [US20250115591, Example 17] | pIC50 | > 5.00 |
| CCN1[C@@H]2CC[C@H]1C[C@@H](S(=O)(=O)NC(=O)Nc1c3c(cc4c1CCC4)CCC3)C2 [US20250115591, Example 52] | pIC50 | > 5.00 |
| O=C(Nc1c2c(cc3c1CCC3)CCC2)NS(=O)(=O)C1CN(C2CCCC2)C1 [US20250115591, Example 99] | pIC50 | > 6.00 |
| CCNC(=O)N1CCC(S(=O)(=O)NC(=O)Nc2c3c(cc4c2CCC4)CCC3)C1 (stereo not drawn) [US20250115591, Example 30] | pIC50 | > 5.00 |
| O=C(Nc1c2c(cc3c1CCC3)CCC2)NS(=O)(=O)C1CN(C2CCC2)C1 [US20250115591, Example 18] | pIC50 | > 6.00 |
